- assayed target: S1-Fc (SARS-CoV-2, UniProt P0DTC2 16-685)
- test method notes: phage ELISA
observation type: ELISA fold over background (fold over background)

>  <binder>
1-4 (antibody, V domains shown, also called variant 1-4) VH: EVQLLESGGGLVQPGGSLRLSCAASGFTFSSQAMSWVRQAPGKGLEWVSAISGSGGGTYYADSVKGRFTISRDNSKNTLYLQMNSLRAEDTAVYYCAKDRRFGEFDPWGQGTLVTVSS VL: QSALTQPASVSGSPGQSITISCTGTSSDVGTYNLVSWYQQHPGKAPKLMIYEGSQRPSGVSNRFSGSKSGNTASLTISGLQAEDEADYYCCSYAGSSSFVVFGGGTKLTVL

>  <val>
0.9

$$$$
>  <binder>
1-27 (antibody, V domains shown, also called variant 1-27) VH: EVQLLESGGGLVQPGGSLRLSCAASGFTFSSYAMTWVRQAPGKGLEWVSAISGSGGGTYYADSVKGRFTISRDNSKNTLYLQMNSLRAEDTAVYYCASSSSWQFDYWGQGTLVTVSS VL: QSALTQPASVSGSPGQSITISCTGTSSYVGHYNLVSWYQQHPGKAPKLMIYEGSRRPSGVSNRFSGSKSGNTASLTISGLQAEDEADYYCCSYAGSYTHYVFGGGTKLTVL

>  <val>
1.3

$$$$
>  <binder>
1-3 (antibody, V domains shown, also called variant 1-3) VH: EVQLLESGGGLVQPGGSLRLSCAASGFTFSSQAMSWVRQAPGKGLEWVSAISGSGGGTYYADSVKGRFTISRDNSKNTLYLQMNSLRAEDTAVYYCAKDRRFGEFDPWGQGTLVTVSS VL: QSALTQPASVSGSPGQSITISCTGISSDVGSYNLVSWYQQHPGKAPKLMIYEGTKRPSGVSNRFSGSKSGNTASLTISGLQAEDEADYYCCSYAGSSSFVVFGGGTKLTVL

>  <val>
1.5

$$$$
